Hello, the source for this data is patent US7348440B2, in case you need it.

- testedTarget: human KSP motor domain (KSP(367H)) (Homo sapiens, UniProt P52732)
- Construct: were used to amplify the motor domain and the neck linker region; made in house; host or cells: E. coli BL21 (DE3), pRSETa vector
- Sequence (P52732 18-359 limits assumed): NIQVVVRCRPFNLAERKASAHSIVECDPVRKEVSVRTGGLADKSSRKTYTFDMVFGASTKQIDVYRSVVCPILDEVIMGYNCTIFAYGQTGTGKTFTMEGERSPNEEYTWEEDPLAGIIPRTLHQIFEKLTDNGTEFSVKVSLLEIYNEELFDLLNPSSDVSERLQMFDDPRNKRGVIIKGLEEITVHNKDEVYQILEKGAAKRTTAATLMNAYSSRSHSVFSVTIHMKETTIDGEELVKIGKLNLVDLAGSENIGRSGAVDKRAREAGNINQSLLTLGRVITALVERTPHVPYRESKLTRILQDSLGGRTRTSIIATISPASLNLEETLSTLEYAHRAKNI
- assayOverview: Kinesin ATPase In Vitro Assay
- Type: biochemical
- testParameters: kinesin motor domain incubated with microtubules, 1 mM ATP and compound at 23° C.; free phosphate by quinaldine red/ammonium molybdate, absorbance 540 nm; read-out: IC50
Listed next: entries and their corresponding IC50.

| compound | testedTarget | IC50 |
| --- | --- | --- |
| CN(C)C(=O)N1CC(c2cc(C(F)(F)F)ccc2F)C=C1c1ccccc1 (stereo not shown) | human KSP motor domain (KSP(367H)) (Homo sapiens, UniProt P52732) | ≤ 50 µM |
| CN(CC1CCNCC1)C(=O)N1CC(c2cc(F)ccc2F)=C[C@H]1c1ccccc1 [18a-6] | human KSP motor domain (KSP(367H)) (Homo sapiens, UniProt P52732) | ≤ 50 µM |
| CCS(=O)(=O)C(C)CN1CC(c2cc(F)ccc2F)=C[C@H]1c1ccccc1 (single isomer, unassigned) | human KSP motor domain (KSP(367H)) (Homo sapiens, UniProt P52732) | ≤ 50 µM |
| NCCS(=O)(=O)N1CC(c2cc(F)ccc2F)=CC1c1ccccc1 (stereo not shown) | human KSP motor domain (KSP(367H)) (Homo sapiens, UniProt P52732) | ≤ 50 µM |
| CC(=O)N1CC(c2cc(F)ccc2F)=CC1c1ccccc1 (stereo not shown) | human KSP motor domain (KSP(367H)) (Homo sapiens, UniProt P52732) | ≤ 50 µM |

Quick one: IC50 of CC(C)(N)C(=O)N1CC(c2cc(F)ccc2F)=CC1c1ccccc1 (stereo not shown) ?
≤ 50 µM

What do you have for CN(C)C(=O)N1CC(c2cc(F)ccc2Cl)=CC1c1ccccc1 (stereo not shown) ?
≤ 50 µM
